Values from paper PMC10649961

system: A549; test: cells; details: Homo sapiens, A549, 48 h, read-out: Cytotoxic Effects (IC50)
We begin with a simple list: items and their reported IC50.

COMPOUND	SIGN	IC50 [µM]
CCCCCCCCC[P+](N(CC)CC)(N(CC)CC)N(CC)CC [4c]	=	21.1
CCCCCCCCC[P+](c1ccccc1)(N(CC)CC)N(CC)CC [5c]	=	8.7
CCCCCCCC[P+](c1ccccc1)(N(CC)CC)N(CC)CC [5b]	=	20
CCCCCCCCCC[P+](N(CC)CC)(N(CC)CC)N(CC)CC [4d]	=	18.4
CCCCCCCCCC[P+](c1ccccc1)(c1ccccc1)N(CC)CC [6d]	=	8.2
CCCCCCCCC[P+](c1ccccc1)(c1ccccc1)N(CC)CC [6c]	=	11.4
COc1cccc2c1C(=O)c1c(O)c3c(c(O)c1C2=O)C[C@@](O)(C(=O)CO)C[C@@H]3O[C@H]1C[C@H](N)[C@H](O)[C@H](C)O1 [doxorubicin, reference compound]	=	0.7
CCCCCCCCCCCCCC[P+](c1ccccc1)(c1ccccc1)N(CC)CC [6e]	=	2.1
CCCCCCCC[P+](N(CC)CC)(N(CC)CC)N(CC)CC [4b]	=	15.4
CCCCCC[P+](c1ccccc1)(c1ccccc1)N(CC)CC [6a]	=	48.2
CCCCCCCCCC[P+](c1ccccc1)(N(CC)CC)N(CC)CC [5d]	=	8.9
CCCCCC[P+](c1ccccc1)(N(CC)CC)N(CC)CC [5a]	=	17
CCCCCCCC[N+](CC)(CC)CC [compound 7, Triethyloctylammonium iodide, reference compound]	>	100
CCCCCC[P+](N(CC)CC)(N(CC)CC)N(CC)CC [4a]	=	64.1
CCCCCCCCCCCCCC[P+](N(CC)CC)(N(CC)CC)N(CC)CC [4e]	=	1.7
CCCCCCCC[P+](c1ccccc1)(c1ccccc1)c1ccccc1 [compound 8, Octyltriphenylphosphonium iodide, reference compound]	=	8.7
CCCCCCCC[P+](c1ccccc1)(c1ccccc1)N(CC)CC [6b]	=	13
CCN(CC)[P+](CCCCCC[P+](N(CC)CC)(N(CC)CC)N(CC)CC)(N(CC)CC)N(CC)CC [compound 9]	>	100

* * *

We begin with a simple list: items and their reported selectivity index (SI).
tested on: PC3; details: calculated relative to the cell line Chang liver (b)
RECORDED ENDPOINT: selectivity index (SI)

                              record_smiles  study_system  value_measured
0    CCCCCCCCC[P+](N(CC)CC)(N(CC)CC)N(CC)CC           PC3             2.7
1  CCCCCCCCCC[P+](c1ccccc1)(N(CC)CC)N(CC)CC           PC3             1.6
2   CCCCCCCCCC[P+](N(CC)CC)(N(CC)CC)N(CC)CC           PC3             1.6
3  CCCCCCCCCCCCCC[P+](N(CC)CC)(N(CC)CC)N(CC)CC           PC3             1.0

* * *

system: DU-145; experiment: cells; conditions: Homo sapiens, DU-145, 48 h, read-out: Cytotoxic Effects (IC50)
RECORDED ENDPOINT: IC50 (nM)

MOLECULE	VALUE MEASURED
COc1cccc2c1C(=O)c1c(O)c3c(c(O)c1C2=O)C[C@@](O)(C(=O)CO)C[C@@H]3O[C@H]1C[C@H](N)[C@H](O)[C@H](C)O1 [doxorubicin, reference compound]	300
